Target: CDK12 (aa686-1082)/Cyclin K complex (Homo sapiens)
Construct: CDK12 (aa686-1082)/Cyclin K complex
Sequence (Q9NYV4 686-1082, species assumed): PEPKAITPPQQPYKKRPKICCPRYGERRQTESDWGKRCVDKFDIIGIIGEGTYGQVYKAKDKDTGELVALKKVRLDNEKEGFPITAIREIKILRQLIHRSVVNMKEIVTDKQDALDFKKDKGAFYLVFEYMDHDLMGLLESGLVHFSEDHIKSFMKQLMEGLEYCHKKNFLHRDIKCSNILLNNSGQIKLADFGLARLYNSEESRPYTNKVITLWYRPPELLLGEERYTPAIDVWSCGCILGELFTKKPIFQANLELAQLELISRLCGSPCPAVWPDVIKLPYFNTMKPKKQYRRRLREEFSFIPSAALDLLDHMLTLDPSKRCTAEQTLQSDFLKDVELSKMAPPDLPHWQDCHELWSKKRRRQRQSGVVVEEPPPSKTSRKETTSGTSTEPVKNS
Sequence (O75909 whole entry partner, species assumed, the tested form may be a part): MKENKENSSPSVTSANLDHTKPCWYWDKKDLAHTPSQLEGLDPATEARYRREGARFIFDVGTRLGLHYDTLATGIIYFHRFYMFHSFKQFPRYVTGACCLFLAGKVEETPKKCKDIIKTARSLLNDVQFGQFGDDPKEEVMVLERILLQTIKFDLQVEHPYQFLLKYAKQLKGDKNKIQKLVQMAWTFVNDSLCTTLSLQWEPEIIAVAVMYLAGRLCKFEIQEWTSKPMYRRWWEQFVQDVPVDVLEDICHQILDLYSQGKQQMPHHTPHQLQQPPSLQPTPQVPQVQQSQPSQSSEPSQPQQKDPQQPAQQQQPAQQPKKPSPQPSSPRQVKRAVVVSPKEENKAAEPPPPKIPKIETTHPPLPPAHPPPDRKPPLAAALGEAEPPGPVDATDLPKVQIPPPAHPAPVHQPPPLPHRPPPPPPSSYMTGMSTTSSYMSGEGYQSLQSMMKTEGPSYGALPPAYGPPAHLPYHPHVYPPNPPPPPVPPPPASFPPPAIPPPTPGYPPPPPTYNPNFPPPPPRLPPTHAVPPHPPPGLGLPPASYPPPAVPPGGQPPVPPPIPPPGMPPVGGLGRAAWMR
Test: CDK12 inhibition assay (Caliper/LabChip EZ Reader kinase assay)
Assay type: biochemical
Details: Table 1; CDK12 (aa686-1082)/Cyclin K 50 nM, ATP 2 mM, 3 hr at 27° C.; listed as 107
Method: Compounds of the invention were assayed for inhibition of CDK7, CDK9, CDK12, and CDK2 activity at Biortus Biosciences (Jiangyin, Jiangsu Province, P.R. of China) using kinase assays for each CDK developed with a Caliper/LabChip EZ Reader (Perkin Elmer, Waltham, MA). […]
REPORTED_ENDPOINT: IC50

Indicate its recorded IC50; the molecule in question is N#C[C@@H]1CCN(C(=O)c2ccc3c(-c4nc(N[C@H]5CCCNC5)ncc4C(F)(F)F)c[nH]c3c2)C1
20 to 200 nM

---

Target: CDK7/Cyclin H/MAT1 complex (Homo sapiens, UniProt P50613)
Sequence (P50613 whole entry, species assumed): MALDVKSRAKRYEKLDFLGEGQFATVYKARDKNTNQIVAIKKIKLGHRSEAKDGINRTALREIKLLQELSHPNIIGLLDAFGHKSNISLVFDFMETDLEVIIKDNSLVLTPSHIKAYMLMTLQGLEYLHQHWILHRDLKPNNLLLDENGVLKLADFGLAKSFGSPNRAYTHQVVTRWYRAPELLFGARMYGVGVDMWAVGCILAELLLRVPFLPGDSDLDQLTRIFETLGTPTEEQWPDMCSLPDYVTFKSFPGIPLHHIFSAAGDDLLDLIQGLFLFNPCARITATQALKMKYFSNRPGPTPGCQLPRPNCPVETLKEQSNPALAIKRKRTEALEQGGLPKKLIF
Sequence (P51946 whole entry partner, species assumed): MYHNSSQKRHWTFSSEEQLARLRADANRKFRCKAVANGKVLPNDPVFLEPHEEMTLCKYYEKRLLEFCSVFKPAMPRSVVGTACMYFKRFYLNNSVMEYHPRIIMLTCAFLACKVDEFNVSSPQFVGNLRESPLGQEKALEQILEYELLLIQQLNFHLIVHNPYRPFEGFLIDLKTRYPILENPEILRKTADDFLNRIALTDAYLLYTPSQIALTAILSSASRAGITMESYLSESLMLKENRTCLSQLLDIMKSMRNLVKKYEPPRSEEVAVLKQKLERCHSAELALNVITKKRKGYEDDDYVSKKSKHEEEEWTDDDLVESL
Sequence (P51948 whole entry partner, species assumed): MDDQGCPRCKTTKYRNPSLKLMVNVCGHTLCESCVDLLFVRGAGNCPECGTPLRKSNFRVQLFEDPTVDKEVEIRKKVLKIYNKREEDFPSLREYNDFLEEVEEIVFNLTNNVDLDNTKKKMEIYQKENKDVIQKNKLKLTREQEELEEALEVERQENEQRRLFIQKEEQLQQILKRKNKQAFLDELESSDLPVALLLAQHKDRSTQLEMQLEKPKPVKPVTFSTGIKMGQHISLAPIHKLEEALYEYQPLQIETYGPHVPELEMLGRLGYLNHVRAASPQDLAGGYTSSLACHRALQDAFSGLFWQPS
Experiment: CDK7 inhibition assay (Caliper/LabChip EZ Reader kinase assay)
Assay type: biochemical
Details: Table 1; CDK7/Cyclin H/MAT1 6 nM, ATP 2 mM, 35 min at 27° C.
Would you mind telling me the reported IC50 of each entry?

Indicate its recorded IC50; the compound in question is FC(F)(F)c1cc2[nH]cc(-c3ccc4c(-c5nc(N[C@H]6CCCNC6)ncc5C(F)(F)F)c[nH]c4c3)c2cn1
20 to 200 nM

Indicate its recorded IC50; the compound in question is CCP(=O)(CC)c1ccc2c(-c3nc(N[C@H]4CCCNC4)ncc3C(F)(F)F)c[nH]c2c1
20 to 200 nM

Indicate its recorded IC50; the compound in question is O=S(=O)(c1ccc2c(-c3nc(N[C@H]4CCCNC4)ncc3C(F)(F)F)c[nH]c2c1)C(F)F
< 20 nM

Indicate its recorded IC50; the compound in question is N#Cc1ccc2c(-c3nc(N[C@@H]4CNCC[C@H]4O)ncc3C(F)(F)F)c[nH]c2c1
20 to 200 nM

Indicate its recorded IC50; the compound in question is CC1(C)CC[C@H](Nc2ncc(C(F)(F)F)c(-c3c[nH]c4ccccc34)n2)CN1
< 20 nM

Indicate its recorded IC50; the compound in question is FC(F)(F)c1cnc(NC2CCCNC2)nc1-c1c[nH]c2cc(C=Cc3ccccc3)ccc12 (stereo not shown)
20 to 200 nM

Indicate its recorded IC50; the compound in question is CC1CCNCC1Nc1ncc(C(F)(F)F)c(-c2c[nH]c3ccccc23)n1 (single isomer, unassigned) [Compound 373]
20 to 200 nM

---

Target: CDK9/Cyclin T1 complex (Homo sapiens, UniProt P50750)
Sequence (P50750 whole entry, species assumed): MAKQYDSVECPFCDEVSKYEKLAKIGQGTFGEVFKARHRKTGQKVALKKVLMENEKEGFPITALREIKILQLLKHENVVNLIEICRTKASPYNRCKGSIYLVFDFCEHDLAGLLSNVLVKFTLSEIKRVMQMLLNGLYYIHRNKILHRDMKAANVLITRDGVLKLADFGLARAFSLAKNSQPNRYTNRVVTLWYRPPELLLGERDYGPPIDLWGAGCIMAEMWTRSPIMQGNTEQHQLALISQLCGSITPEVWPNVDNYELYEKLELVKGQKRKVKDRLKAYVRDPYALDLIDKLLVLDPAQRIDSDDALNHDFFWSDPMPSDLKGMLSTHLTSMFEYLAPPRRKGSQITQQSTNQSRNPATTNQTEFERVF
Sequence (O60563 whole entry partner, species assumed): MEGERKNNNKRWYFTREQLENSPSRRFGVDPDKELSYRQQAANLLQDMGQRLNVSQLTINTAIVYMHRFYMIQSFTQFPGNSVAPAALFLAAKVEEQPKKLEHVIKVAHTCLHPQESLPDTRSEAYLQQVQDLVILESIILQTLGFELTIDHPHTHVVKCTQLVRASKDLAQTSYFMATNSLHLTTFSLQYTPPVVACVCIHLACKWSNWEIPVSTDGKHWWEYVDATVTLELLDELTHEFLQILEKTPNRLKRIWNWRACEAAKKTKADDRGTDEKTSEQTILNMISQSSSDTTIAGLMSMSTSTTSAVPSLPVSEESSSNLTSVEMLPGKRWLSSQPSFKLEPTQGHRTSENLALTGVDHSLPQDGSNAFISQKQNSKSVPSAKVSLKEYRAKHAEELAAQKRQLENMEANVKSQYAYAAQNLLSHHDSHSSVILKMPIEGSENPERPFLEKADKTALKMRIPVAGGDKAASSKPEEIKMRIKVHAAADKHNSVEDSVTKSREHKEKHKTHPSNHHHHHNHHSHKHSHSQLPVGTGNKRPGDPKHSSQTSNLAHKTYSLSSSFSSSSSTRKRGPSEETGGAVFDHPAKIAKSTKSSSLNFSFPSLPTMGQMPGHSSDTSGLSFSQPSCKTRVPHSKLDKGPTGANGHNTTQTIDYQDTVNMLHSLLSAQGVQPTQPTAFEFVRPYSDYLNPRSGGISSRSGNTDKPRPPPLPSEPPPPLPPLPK
Test: CDK9 inhibition assay (Caliper/LabChip EZ Reader kinase assay)
Type: biochemical
Details: Table 1; CDK9/Cyclin T1 8 nM, ATP 2 mM, 15 min at 27° C.; listed as 114
REPORTED_ENDPOINT: IC50

Indicate its recorded IC50; the compound in question is O=C(O)c1ccc2c(-c3nc(N[C@H]4CCCNC4)ncc3C(F)(F)F)c[nH]c2c1
200 to 5000 nM

---

Biological target: CDK9/Cyclin T1 complex (Homo sapiens)
Assay: CDK9 inhibition assay (Caliper/LabChip EZ Reader kinase assay)
Assay type: biochemical
Details: Table 1; CDK9/Cyclin T1 8 nM, ATP 2 mM, 15 min at 27° C.
REPORTED_ENDPOINT: IC50

Indicate its recorded IC50; the molecule in question is CSc1cnc(N[C@H]2CCCNC2)nc1-c1c[nH]c2cc(C#N)ccc12
0.2 to 5 µM

Indicate its recorded IC50; the molecule in question is FC(F)(F)c1cnc(N[C@H]2CCCNC2)nc1-c1c[nH]c2cc(-c3ccc4c(c3)OCCO4)ccc12
> 5 µM

Indicate its recorded IC50; the molecule in question is FC(F)(F)c1cnc(N[C@H]2CCCNC2)nc1-c1c[nH]c2cc(-c3ccc4[nH]cnc4c3)ccc12
0.2 to 5 µM

Indicate its recorded IC50; the molecule in question is CCN1CCC[C@H](Nc2ncc(C(F)(F)F)c(-c3c[nH]c4cc(C#N)ccc34)n2)C1
0.2 to 5 µM

Indicate its recorded IC50; the molecule in question is O=C(C1CCC(Nc2ncc(C(F)(F)F)c(-c3c[nH]c4ccccc34)n2)CN1)N1CCC(O)C1 (mixture of isomers) [Compound 250]
> 5 µM

Indicate its recorded IC50; the molecule in question is O=C(c1ccc2c(-c3nc(N[C@H]4CCCNC4)ncc3C(F)(F)F)c[nH]c2c1)N1CCCC1
> 5 µM

Indicate its recorded IC50; the molecule in question is CCc1cnc(N[C@H]2CCCNC2)nc1-c1n[nH]c2nc(C#N)ccc12
0.2 to 5 µM

Origin of the recorded values: patent US20240360165A1
